B1: tRNA (parent)
chain: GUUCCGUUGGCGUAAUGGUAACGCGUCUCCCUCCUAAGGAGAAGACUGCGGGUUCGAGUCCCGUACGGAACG

# Variants of: B1
# Procedure summary: yeast fitness relative to wild type (ratio to wild type); higher = fitter; tRNA-Arg(CCU), competitive growth, 37 C, YPD
This sample holds only a part of the variants without activity.
Classify as follows. Reported yeast fitness greater than or equal to 0.7: rule met. Reported yeast fitness below: rule not met.

Variant code	Label value
C11U U35C A42G	rule not met
C11G A14C G23C G41C C61A	rule not met
U13G A45U C55G	rule not met
G6A U19A G23A	rule not met
C11U A37U G38A	rule not met
A14G U16A C33A U59C	rule not met
G9C U13C C55U A57C	rule not met
U2A U16A G56C A57G	rule not met
A20G U28A	rule met
C34A A65U	rule met
C5U A15U C30G C33G A40G A43U	rule not met
C11A A43G G58C C62U	rule not met
C5U U13A C27G A57C G67A A69U	rule not met
A42C G50C	rule not met
A20U C46U	rule met
G9A C24G C34G A69U	rule not met
C30A A36G A65G	rule not met
G10C C11U G25C C30G G67C	rule not met
C11U C27U C31A U35C C55G C62U C66U A70C	rule not met
A21U A36G C49A	rule not met
A14U A37U	rule not met
C11G C24G A57G	rule not met
C55A A69C	rule not met
C5G C11G A42C C49U	rule not met
C11G G51A C60U	rule met
U32G	rule not met
C11G A36C G52C G56A	rule not met
C46G U59C	rule met
G10A C33U G44C A45G	rule not met
U3C C22A U47A A70G	rule not met
U2G A20U	rule met
G17C U26G G39C A40U	rule not met
C33U G51A A65U	rule not met
C46G A57C	rule not met
